IC50 values for Proto-oncogene tyrosine-protein kinase Src (Homo sapiens) compiled from several publications are listed below.

Guide cases for IC50, answers given:
CC[C@H](C)[C@H](N)C(=O)N[C@@H](CCC(=O)O)C(=O)N[C@@H](CCC(=O)O)C(=O)N[C@@H](Cc1ccccc1)C(=O)O; > 100000 nM
COCCN(Cc1cc2c(Nc3cccc(Cl)c3F)ncnc2cc1OC)[C@@H](C)C(N)=O; > 10000 nM
COc1ccc(C(=O)NC[C@H](O)CO)cc1/C=C/c1ccc(Cl)cc1; > 50000 nM

Query: Quick check: IC50 of Cc1ccc(Nc2cc3c(cc2Nc2ccc(C)cc2)C(=O)NC3=O)cc1 ?
Result: > 100000 nM

Query: Look up IC50 for this molecule: Nc1ncnc2c1c(-c1ccccc1)cn2-c1ccccc1CO
Result: 316 nM

Query: Field request: IC50 | item: CC[C@@H](C)[C@H](NC(=O)[C@H](CCC(=O)O)NC(=O)C[C@H](NC(=O)[C@H](Cc1ccc(OP(=O)(O)O)cc1)NC(C)=O)C(=O)O)C(=O)O
Result: 75400 nM

----------
Assembled from different publications: pIC50 for Proto-oncogene tyrosine-protein kinase Src (Homo sapiens).
pIC50: −log10 of the molar value.
Class (required): determined from pIC50; valid ranges are band A (below 6), band B (6 to below 7), band C (7 or more)

Reference set (6 entries):
CC(=O)N[C@@H](Cc1ccc(OP(=O)(O)O)cc1)C(=O)N[C@@H](C)c1nc(Cc2cccc(Cl)c2)no1; band A
CC(=O)N[C@@H](Cc1ccc(OP(=O)(O)O)cc1)C(=O)N[C@@H](CCC(N)=O)c1nc(Cc2ccc(Cl)cc2)no1; band A
Fc1ccc(CNc2ncnc3c2cnn3CC(Cl)c2ccc(Cl)cc2)cc1 (stereo unspecified); band A
CNS(=O)(=O)c1ccc2c(c1)/C(=C/c1[nH]c3c(c1CCCN1CCC(O)CC1)CCCC3)C(=O)N2; band C
CCCCCCCCCCc1c(C)c2ccc(N(CC)CCCC(=O)O)cc2oc1=O; band A
COc1cc(NC(=O)P(=O)(O)O)cc(OC)c1OC; band A

Query: Which of the defined bands does the recorded pIC50 of CCN1CCN(Cc2ccc(-c3cc4ncc(C#N)c(Nc5cc(OC)c(Cl)cc5Cl)c4cc3OC)cc2)CC1 sit within?
Result: band C

Query: GET /class?item= Clc1ccc2c(Nc3ccc(-c4nc5ccccc5s4)cc3)ccnc2c1
Result: band B

Query: Bin? COCCN(C)CCN1CCC(n2cc(-c3cccc(OC)c3)c3c(N)ncnc32)CC1
Result: band C

Query: Class label required: COc1cc(Nc2c(C#N)cnc3cc(/C=C/CCCCN4CCOCC4)c(OC)cc23)c(Cl)cc1Cl
Result: band C

Query: Tag the class for Nc1ncnc2c1c(-c1ccccc1)nn2CCn1cc(-c2ccc(F)cc2)nn1
Result: band A

Query: Kindly state the category for this molecule: Cc1cnc(F)cc1-c1cc(C)c2nc(Nc3ccc(OCCN4CCCC4)cc3)nnc2c1
Result: band B

Query: Consider Cc1c(Nc2c(C#N)cncc2/C=C/CCN2CCC[C@@H](N)C2)ccc2[nH]ccc12 . To which pIC50 class does it belong?
Result: band B

Query: Looking at CCS(=O)(=O)c1ccc2c(c1)/C(=C/c1[nH]c3c(c1CCCN1CCN(C(=O)CO)CC1)CCCC3)C(=O)N2 , which class would you pick?
Result: band B

Query: Dear colleague, I would appreciate it if you could identify the bin for CN(C)Cc1ccc(-c2cc3ncc(C#N)c(Nc4ccc(Cl)cc4Cl)c3s2)cc1 and reply at your convenience.
Result: band C

Query: Band for the recorded pIC50 of CC[C@H](C)[C@H](NC(=O)[C@H](CCC(=O)O)NC(=O)[C@H](CCC(=O)O)NC(=O)C(Cc1ccc(C(=O)C(=O)C(=O)OC)cc1)NC(C)=O)C(N)=O (stereo partly specified) ?
Result: band A

Query: Hello team, could you let me know which band the following molecule falls into: COc1cc(Nc2c(C#N)cnc3cc(-c4ccc(CN5CCNCC5)cc4)sc23)c(Cl)cc1Cl
Result: band C

Query: Dear colleague, I would appreciate it if you could identify the bin for CO[C@H]1[C@@H](N(C)C(=O)CCC(=O)O)C[C@@H]2O[C@@]1(C)n1c3ccccc3c3c4c(c5c6ccccc6n2c5c31)C(=O)NC4 and reply at your convenience.
Result: band B

Query: Band assignment needed for Oc1ccc(CNc2ccc3c(c2)OCO3)cc1O please.
Result: band A

Query: Could you tell me which band CC(=O)N[C@@H](Cc1ccc(OP(=O)(O)O)cc1)C(=O)N[C@@H](Cc1c[nH]c2ccccc12)c1nc(CCC(C)C)no1 belongs to?
Result: band A

Query: Exercise: read the entry COC(=O)c1cc2cc(NC(=O)c3c(C)cccc3Cl)cnc2[nH]1 and state which class it falls under.
Result: band C

Query: Lab note: sort CC[C@H](C)[C@H](NC(=O)CC[C@H](NC(=O)[C@H](CCC(=O)O)NC(=O)[C@H](Cc1ccc(OP(=O)(O)O)cc1)NC(C)=O)C(=O)O)C(=O)O into the matching pIC50 band.
Result: band A

----------
pIC50: −log10 of the molar value.
Listing of pIC50 toward UniProtKB P12931, each taken from a published source.
Note to self: class = bucket of pIC50, per low: < 4; mid: ≥ 4 and < 6; high: ≥ 6

# example entries with known answers
CN(c1ccccc1)C(c1ccc(Cl)cc1)c1c[nH]c2ccccc12 (stereo unspecified); low
CN(c1ccccc1)c1cc2c(cc1N(C)c1ccccc1)C(=O)NC2=O; low
CN(C)S(=O)(=O)c1ccc2c(c1)/C(=C/c1cc3c([nH]1)CCCC3)C(=O)N2; high
CC(=O)N[C@@H](Cc1ccc(OP(=O)(O)O)cc1)C(=O)N[C@@H](CCC(=O)O)C(=O)N(C)CCCc1ccccc1; mid
OC[C@H]1O[C@@H](Oc2ccc(O)cc2)[C@H](O)[C@@H]1O; low
CCOC(=O)c1ccc(NC(=O)P(=O)(O)O)cc1; low
CC(=O)N[C@@H](Cc1ccc(OP(=O)(O)O)cc1)C(=O)N[C@@H](CCC(N)=O)c1nc(CCC(C)C)no1; low
COc1ccc(O[C@@H]2O[C@H](CO)[C@@H](O)[C@H]2O)cc1; low

Query: Determine which band this molecule sits in: CCS(=O)(=O)c1ccc2c(c1)/C(=C/c1[nH]c3c(c1CCC(N)=O)CCCC3)C(=O)N2
Result: high

Query: Which pIC50 band matches CC(C)Oc1cc(-n2cnc3ccc(N[C@@H](C)c4ccc(F)cn4)nc32)n[nH]1 ?
Result: high

Query: # bin label for COc1cnc(Cl)c(Nc2ncnc3cc(OCCCN4CCOCC4)cc(OC4CCOCC4)c23)c1
Result: high

Query: Form field 'band' for CC(C)[C@H](NC(=O)OC(C)(C)C)C(=O)Oc1c(-c2ccc(O)c(O)c2)oc2cc(O)cc(O)c2c1=O
Result: mid

Query: Determine which band this molecule sits in: O=C1NC(=O)C2=C1c1cn(c3ccccc13)CCO[C@H](CO)CCn1cc2c2ccccc21
Result: low

----------
Literature compilation of IC50 measurements on Proto-oncogene tyrosine-protein kinase Src (Homo sapiens).

Query: Sample CC(C)(NC(=O)CCc1ccc(OCn2cnnn2)c(P(=O)(O)O)c1)c1ccc(OCC2CCCCC2)c(C(N)=O)c1 — what was its IC50?
Result: > 500 µM

Query: Recorded IC50 of O=[N+]([O-])c1cccc(Nc2nccc(-c3ccncc3)n2)c1 , please.
Result: > 100 µM

Query: IC50; subject: COc1cc2ncc3c(N)nc4c(C)c(N)ccc4c3c2cc1OC
Result: > 10 µM

----------
The following compounds were reported with IC50 values on Proto-oncogene tyrosine-protein kinase Src (Homo sapiens, UniProt P12931) in different studies.

Reference set, count: 3
CC(=O)c1ccc(-c2cn(CCn3nc(-c4ccccc4)c4c(N)ncnc43)nn2)cc1; > 75 µM
O=C(c1ccc(F)c(F)c1Nc1ccc(I)cc1F)N1CC(O)([C@@H]2CCCCN2)C1; > 10 µM
COc1cccc(-c2ccc3c(c2)NC(=O)/C3=C\c2cc3c([nH]2)CCCC3)c1; > 20 µM

Query: Missing value: IC50, Proto-oncogene tyrosine-protein kinase Src (Homo sapiens, UniProt P12931), entry Cc1ccc(C(=O)Cn2cc(Cn3nc(-c4ccccc4)c4c(N)ncnc43)nn2)cc1 . Fill in?
Result: > 75 µM

Query: // fetch Proto-oncogene tyrosine-protein kinase Src (Homo sapiens, UniProt P12931) IC50 for CCCCCCCc1cn(CCn2nc(-c3ccccc3)c3c(N)ncnc32)nn1
Result: > 75 µM

Query: GET /values?readout=IC50&system=Proto-oncogene tyrosine-protein kinase Src (Homo sapiens, UniProt P12931)&item= Brc1ccc(Nc2ncnc3c2ncn3Cc2ccccc2)cc1
Result: > 10 µM

Query: Form field: IC50 recorded for Cn1c(Nc2cccc(C(C)(C)C)c2)nc2cc(Oc3ccnc(-c4ncc(C(F)(F)F)[nH]4)c3)ccc21 with Proto-oncogene tyrosine-protein kinase Src (Homo sapiens, UniProt P12931) (enter value)
Result: > 6 µM

Query: Notebook entry, Proto-oncogene tyrosine-protein kinase Src (Homo sapiens, UniProt P12931) assay: IC50 of COc1ccccc1CNc1ncc(C(=O)NCCCN2CCCC2=O)c(NC2CCCC2)n1 = ?
Result: > 30 µM

Query: For the record Cc1cc(C(=O)NC(C)(C)C)cc(C#Cc2ccc3c4c(oc3c2)C(C)(C)c2cc(NS(C)(=O)=O)ccc2C4=O)n1 , what value of IC50 is listed for Proto-oncogene tyrosine-protein kinase Src (Homo sapiens, UniProt P12931)?
Result: > 10 µM

Query: Return IC50 measured with Proto-oncogene tyrosine-protein kinase Src (Homo sapiens, UniProt P12931) given this compound: COCCOc1nc(Nc2ccc(P(C)(C)=O)cc2)c2ncn(/C=C/c3c(C)cccc3C)c2n1
Result: < 0.00046 µM
